For each entry below, report its inhibition of growth at 10 µM value.
# Test system: DU-145
# Procedure Details: Growth inhibition of human DU145 cells at 10 uM incubated for 48 hrs by sulforhodamine B assay relative to control
# Assay type: functional
# Details: DU-145, 48 h, read-out: GI
Give bare numbers, in %.

Below: 3 molecules and their reported inhibition of growth at 10 µM.
COc1cc(-c2nc3sc(-c4ccccc4)cn3n2)cc(OC)c1OC : 9
COc1ccc(-c2nc3sc(-c4ccc(Cl)cc4)cn3n2)cc1 : 19.3
COc1ccc(-c2nc3sc(-c4ccccc4)cn3n2)cc1 : 16

Hey, quick one: what's inhibition of growth at 10 µM for each of these?
1. c1ccc(-c2nc3sc(-c4ccccc4)cn3n2)cc1
2. Clc1ccc(-c2cn3nc(-c4ccccc4)nc3s2)cc1

result:
15
14

###

# System: MDA-MB-435
# Procedure Details: Growth inhibition of human MDA-MB-435 cells at 10 uM incubated for 48 hrs by sulforhodamine B assay relative to control
# Assay type: functional
# Details: MDA-MB-435, 48 h, read-out: GI
Endpoint Label: inhibition of growth at 10 µM (%)
Give bare numbers, in %.

Hey, quick one: what's inhibition of growth at 10 µM for each of these?
1. Clc1ccc(-c2cn3nc(-c4ccccc4)nc3s2)cc1
2. COc1cc(-c2nc(N)n(CC(=O)Nc3ccc(/C(C)=N\O)cc3)n2)cc(OC)c1OC
3. COc1cc(-c2nc3sc(-c4ccccc4)cn3n2)cc(OC)c1OC

result:
[11, 18, 16]

Hey, quick one: what's inhibition of growth at 10 µM for each of these?
1. COc1ccc(-c2nc3sc(-c4ccccc4)cn3n2)cc1
2. COc1ccc(-c2nc3sc(-c4ccc(Cl)cc4)cn3n2)cc1

result:
[-8.6, 25]

###

For each entry below, report its inhibition of growth at 10 µM value.
# System: SK-OV-3
# Procedure Details: Growth inhibition of human SKOV3 cells at 10 uM incubated for 48 hrs by sulforhodamine B assay relative to control
# Format: functional
# Details: SK-OV-3, 48 h, read-out: GI
Numbers only, in %.

Below: 3 compounds and their reported inhibition of growth at 10 µM.
COc1cc(-c2nc(N)n(CC(=O)Nc3ccc(/C(C)=N\O)cc3)n2)cc(OC)c1OC : 12.1
C/C(=N\O)c1ccc(NC(=O)Cn2nc(-c3ccc(Cl)cc3)nc2N)cc1 : 27.4
COc1ccc(-c2nc3sc(-c4ccc(Cl)cc4)cn3n2)cc1 : 50.5

Next up:
Item: Clc1ccc(-c2cn3nc(-c4ccccc4)nc3s2)cc1 | System: SK-OV-3 | inhibition of growth at 10 µM: 64

###

# Tested on: HL-60(TB)
# Procedure Details: Growth inhibition of human HL-60(TB) cells at 10 uM incubated for 48 hrs by sulforhodamine B assay relative to control
# Type: functional
# Details: HL-60, 48 h, read-out: GI
Endpoint Label: inhibition of growth at 10 µM (%)
Answers are plain numbers, in %.

Hey, quick one: what's inhibition of growth at 10 µM for each of these?
1. C/C(=N/O)c1ccc(NC(=O)Cn2nc(-c3ccccc3)nc2N)cc1
2. CC(=O)c1ccc(NC(=O)Cn2nc(-c3ccc(Cl)cc3)nc2N)cc1
3. C/C(=N\O)c1ccc(NC(=O)Cn2nc(-c3ccc(Cl)cc3)nc2N)cc1
4. C/C(=N/O)c1ccc(NC(=O)Cn2nc(C(F)(F)F)nc2N)cc1

result:
7.41
7.98
5.94
26

###

# Tested on: MDA-MB-468
# Procedure Details: Growth inhibition of human MDA-MB-468 cells at 10 uM incubated for 48 hrs by sulforhodamine B assay relative to control
# Format: functional
# Details: MDA-MB-468, 48 h, read-out: GI
For each entry below, report its inhibition of growth at 10 µM value.
Numbers only, in %.

Below: 4 compounds and their reported inhibition of growth at 10 µM.
COc1ccc(-c2nc3sc(-c4ccc(Cl)cc4)cn3n2)cc1 : 66.6
c1ccc(-c2nc3sc(-c4ccccc4)cn3n2)cc1 : 14
COc1cc(-c2nc3sc(-c4ccccc4)cn3n2)cc(OC)c1OC : 35
COc1ccc(-c2nc3sc(-c4ccccc4)cn3n2)cc1 : 81

Next up:
Given item Clc1ccc(-c2cn3nc(-c4ccccc4)nc3s2)cc1 , the value recorded as its inhibition of growth at 10 µM is 57

###

# Test system: A498
# Procedure Details: Growth inhibition of human A498 cells at 10 uM incubated for 48 hrs by sulforhodamine B assay relative to control
# Assay type: functional
# Details: A498, 48 h, read-out: GI
Give true when the value for inhibition of growth at 10 µM is at least 30%. Give false when it is less.

Consider the following illustrative entries.
C/C(=N/O)c1ccc(NC(=O)Cn2nc(-c3ccccc3)nc2N)cc1 : false
Clc1ccc(-c2cn3nc(-c4ccccc4)nc3s2)cc1 : true

query: Could you verify whether the entry COc1ccc(-c2nc3sc(-c4ccccc4)cn3n2)cc1 shows inhibition of growth at 10 µM of no less than 30%?
result: true

query: Could you verify whether the entry COc1ccc(-c2nc3sc(-c4ccc(Cl)cc4)cn3n2)cc1 shows inhibition of growth at 10 µM of no less than 30%?
result: false

query: Could you verify whether the entry c1ccc(-c2nc3sc(-c4ccccc4)cn3n2)cc1 shows inhibition of growth at 10 µM of no less than 30%?
result: false

query: Could you verify whether the entry COc1cc(-c2nc3sc(-c4ccccc4)cn3n2)cc(OC)c1OC shows inhibition of growth at 10 µM of no less than 30%?
result: false

query: Could you verify whether the entry COc1cc(-c2nc(N)n(CC(=O)Nc3ccc(/C(C)=N\O)cc3)n2)cc(OC)c1OC shows inhibition of growth at 10 µM of no less than 30%?
result: false

###

For each entry below, report its inhibition of growth at 10 µM value.
# Tested on: SN12C
# Procedure Details: Growth inhibition of human SN12C cells at 10 uM incubated for 48 hrs by sulforhodamine B assay relative to control
# Type: functional
# Details: read-out: GI
Give bare numbers, in %.

Below: 5 molecules and their reported inhibition of growth at 10 µM.
COc1ccc(-c2nc3sc(-c4ccccc4)cn3n2)cc1 : 37
Clc1ccc(-c2cn3nc(-c4ccccc4)nc3s2)cc1 : 22
COc1cc(-c2nc(N)n(CC(=O)Nc3ccc(/C(C)=N\O)cc3)n2)cc(OC)c1OC : 4
c1ccc(-c2nc3sc(-c4ccccc4)cn3n2)cc1 : 20
COc1cc(-c2nc3sc(-c4ccccc4)cn3n2)cc(OC)c1OC : 19

Next up:
Item: COc1ccc(-c2nc3sc(-c4ccc(Cl)cc4)cn3n2)cc1 | System: SN12C | inhibition of growth at 10 µM: 94.7

###

# Tested on: K562
# Procedure Details: Growth inhibition of human K562 cells at 10 uM incubated for 48 hrs by sulforhodamine B assay relative to control
# Format: functional
# Details: K562, 48 h, read-out: GI
Give met when the value for inhibition of growth at 10 µM is at least 20%. Give not met when it is less.

COc1ccc(-c2nc3sc(-c4ccccc4)cn3n2)cc1 : met
c1ccc(-c2nc3sc(-c4ccccc4)cn3n2)cc1 : not met
COc1cc(-c2nc(N)n(CC(=O)Nc3ccc(/C(C)=N\O)cc3)n2)cc(OC)c1OC : not met
COc1ccc(-c2nc3sc(-c4ccc(Cl)cc4)cn3n2)cc1 : met
Clc1ccc(-c2cn3nc(-c4ccccc4)nc3s2)cc1 : met

Consider the record given below.
query: Could you verify whether the entry COc1cc(-c2nc3sc(-c4ccccc4)cn3n2)cc(OC)c1OC shows inhibition of growth at 10 µM of no less than 20%?
result: met

###

For each entry below, report its pIC50 value.
# Experimental Target: Epidermal growth factor receptor (Homo sapiens)
# Sequence (P00533 whole entry, the tested form may be a part): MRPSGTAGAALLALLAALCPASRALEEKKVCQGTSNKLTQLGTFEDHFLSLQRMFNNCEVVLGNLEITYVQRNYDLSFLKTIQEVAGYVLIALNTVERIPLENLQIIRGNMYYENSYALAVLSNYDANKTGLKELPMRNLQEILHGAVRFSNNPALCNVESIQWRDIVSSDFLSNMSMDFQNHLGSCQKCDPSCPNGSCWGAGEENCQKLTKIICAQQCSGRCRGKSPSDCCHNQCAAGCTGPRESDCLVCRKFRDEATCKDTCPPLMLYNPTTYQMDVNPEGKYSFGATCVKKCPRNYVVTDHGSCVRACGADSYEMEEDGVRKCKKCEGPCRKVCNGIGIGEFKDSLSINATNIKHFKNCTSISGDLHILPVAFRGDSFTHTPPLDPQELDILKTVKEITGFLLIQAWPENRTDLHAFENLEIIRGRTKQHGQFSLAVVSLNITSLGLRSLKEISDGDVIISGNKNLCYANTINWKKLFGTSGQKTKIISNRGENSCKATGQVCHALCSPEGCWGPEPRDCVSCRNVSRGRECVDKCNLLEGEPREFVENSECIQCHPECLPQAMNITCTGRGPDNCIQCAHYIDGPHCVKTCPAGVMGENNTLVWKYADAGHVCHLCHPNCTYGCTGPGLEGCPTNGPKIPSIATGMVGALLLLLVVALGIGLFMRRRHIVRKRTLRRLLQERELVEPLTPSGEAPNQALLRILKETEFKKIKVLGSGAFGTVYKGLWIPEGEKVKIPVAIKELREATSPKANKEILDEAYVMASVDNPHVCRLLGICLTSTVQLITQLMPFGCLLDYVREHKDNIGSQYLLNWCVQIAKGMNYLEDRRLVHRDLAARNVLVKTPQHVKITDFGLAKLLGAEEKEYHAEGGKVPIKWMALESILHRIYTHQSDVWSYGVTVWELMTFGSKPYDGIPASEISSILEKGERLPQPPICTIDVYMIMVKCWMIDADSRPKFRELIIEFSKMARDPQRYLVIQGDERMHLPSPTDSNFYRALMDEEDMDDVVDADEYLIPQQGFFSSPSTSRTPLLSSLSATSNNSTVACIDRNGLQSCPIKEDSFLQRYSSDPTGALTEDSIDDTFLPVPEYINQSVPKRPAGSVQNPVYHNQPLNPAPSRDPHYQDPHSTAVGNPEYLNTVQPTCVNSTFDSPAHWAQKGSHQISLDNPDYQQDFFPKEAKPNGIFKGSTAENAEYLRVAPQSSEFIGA
# Procedure Details: Inhibition of His6-tagged recombinant EGFR cytoplasmic domain (645 to 1186 residues) (unknown origin) expressed in baculovirus infected Sf9 insect cells preincubated for 10 mins followed by ATP-MgCl2 addition and measured after 1 hr by DELFIA/time-resolved fluorometric analysis
One number for each entry, as −log10 of the molar value.

Below: 5 compounds and their reported pIC50.
COc1ccc(-c2nc3sc(-c4ccc(Cl)cc4)cn3n2)cc1 : 5.82
c1ccc(-c2nc3sc(-c4ccccc4)cn3n2)cc1 : 5.01
COc1ccc(-c2nc3sc(-c4ccccc4)cn3n2)cc1 : 5.25
COc1cc(-c2nc3sc(-c4ccccc4)cn3n2)cc(OC)c1OC : 5.55
Clc1ccc(-c2cn3nc(-c4ccccc4)nc3s2)cc1 : 5.14

Next up:
Given item COc1cc(-c2nc3sc(-c4ccc(Cl)cc4)cn3n2)cc(OC)c1OC , the value recorded as its pIC50 is 5.77

These data points were gathered from ChEMBL document CHEMBL4270577.
